Hey, just so you know, these numbers are from paper PMC11085448.

target: human δ-opioid receptor (OPRD1) (Homo sapiens); test: forskolin-induced cAMP accumulation assay, DOR agonist; settings: CHO-K1, read-out: DOR Agonist %Emax ± SEM, CHO-K1 cells expressing human DOR; normalized to the forskolin control
Sequence (P41143 whole entry): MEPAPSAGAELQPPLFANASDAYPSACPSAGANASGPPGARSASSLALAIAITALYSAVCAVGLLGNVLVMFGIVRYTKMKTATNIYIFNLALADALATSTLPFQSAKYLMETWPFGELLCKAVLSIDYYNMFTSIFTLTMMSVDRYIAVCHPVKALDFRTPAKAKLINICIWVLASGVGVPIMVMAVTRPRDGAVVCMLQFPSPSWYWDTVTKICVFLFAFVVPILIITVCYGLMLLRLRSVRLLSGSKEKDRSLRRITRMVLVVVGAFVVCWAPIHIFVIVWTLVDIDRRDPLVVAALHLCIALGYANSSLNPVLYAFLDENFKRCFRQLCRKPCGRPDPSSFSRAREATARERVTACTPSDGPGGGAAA
Consider the reported Emax of an entry and match it to a band in low: < 40%; moderate: ≥ 40% and < 60%; high: ≥ 60%

Problem: Which of the defined bands does the recorded Emax of N#CC=C1[C@@H]2CCC[C@@]1(c1cccc(O)c1)CCN2CCc1ccccc1 sit within?
Solution: moderate

Problem: Which of the defined bands does the recorded Emax of CNC[C@@H]1[C@@H]2CCC[C@@]1(c1cccc(O)c1)CCN2CCc1ccccc1 sit within?
Solution: high

Problem: Which of the defined bands does the recorded Emax of ON=C1[C@H]2CCC[C@]1(c1cccc(O)c1)CCN2CCc1ccccc1 sit within?
Solution: low
